system name: 12-lipoxygenase (Rattus norvegicus)
Construct: The pelleted platelets were rinsed twice with a washing buffer; from tissue; host or cells: platelets of Sprague Dawley male rat (sonicate, 100,000 x g supernatant)
Sequence (F1LQ70 whole entry): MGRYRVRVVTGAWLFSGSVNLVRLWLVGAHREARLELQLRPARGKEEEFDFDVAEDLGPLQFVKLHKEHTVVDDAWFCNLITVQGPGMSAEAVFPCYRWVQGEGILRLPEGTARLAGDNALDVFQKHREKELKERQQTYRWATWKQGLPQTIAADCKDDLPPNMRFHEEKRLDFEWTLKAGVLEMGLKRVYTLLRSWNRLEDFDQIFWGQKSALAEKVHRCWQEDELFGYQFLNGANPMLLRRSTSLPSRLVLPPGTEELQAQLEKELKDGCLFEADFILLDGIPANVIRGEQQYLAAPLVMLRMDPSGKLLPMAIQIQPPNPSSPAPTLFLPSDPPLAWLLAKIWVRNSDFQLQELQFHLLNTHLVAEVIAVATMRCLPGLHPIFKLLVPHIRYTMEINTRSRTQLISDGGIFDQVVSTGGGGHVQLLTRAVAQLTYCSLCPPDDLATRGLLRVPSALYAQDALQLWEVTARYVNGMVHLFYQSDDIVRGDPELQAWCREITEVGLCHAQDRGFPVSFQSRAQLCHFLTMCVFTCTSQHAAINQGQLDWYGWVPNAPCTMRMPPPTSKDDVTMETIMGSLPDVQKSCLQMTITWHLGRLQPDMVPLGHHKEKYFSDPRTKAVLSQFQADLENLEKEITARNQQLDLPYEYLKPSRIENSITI
assay: 12-lipoxygenase inhibition assay (rat platelet enzyme solution)
Assay type: biochemical, Sprague Dawley male rat
measurement parameters: 10^-5 (mole concentration); read-out: 12-Lipoxygenase inhibition ratio (%)
measured property: inhibition at 10 µM

Solved cases below.
[
  {
    "compound": "N#CC(=Cc1cccc(O)c1)c1ccc(Cl)cc1 [Comp. Ex. 1, reference compound]",
    "inhibition at 10 µM": "< 10%"
  },
  {
    "compound": "N#CC(=Cc1ccc(O)cc1)c1ccc(Cl)cc1 [Comp. Ex. 2, reference compound]",
    "inhibition at 10 µM": "< 10%"
  },
  {
    "compound": "N#CC(=Cc1ccc(O)c(O)c1)c1ccc(Cl)cc1 [Ex. 1, α-cyano-4-chloro-3',4'-dihydroxystilbene]",
    "inhibition at 10 µM": "97%"
  }
]

In plain terms, COc1ccc(C=C(C#N)c2ccc(Cl)cc2)cc1O [Comp. Ex. 3, reference compound] has a documented inhibition at 10 µM of < 10%
